- target of assay: SARS2 coronavirus 3CL protease (Severe acute respiratory syndrome coronavirus 2)
- experiment: biochemical
- measurement conditions: 5 nM enzyme, 30 min pre-incubation with compound, 15 μM peptide substrate, 4 h at room temperature; read-out: FRET Potency (nM); IC50 values in the SARS2 3CLPro FRET assay
measurement label: IC50 (nM)

• CNC(=O)C(=O)[C@H](C[C@@H]1C[C@@H](C)NC1=O)NC(=O)c1cc(Cl)ccc1NC(=O)C1CC1C(F)(F)F (stereo partly drawn) [Example 189] = 3.5
• C[C@@H]1C[C@@H](C[C@H](NC(=O)c2cc(Cl)cnc2NC(=O)c2cccc(F)c2)C(=O)C(=O)NC2CC2)C(=O)N1 [Example 58] = 8.1
• CNC(=O)C(=O)[C@H](C[C@@H]1C[C@@H](C)NC1=O)NC(=O)c1cc(Cl)ccc1NC(=O)C1(CC(F)(F)F)CC1 [Example 202] = 11.9
• C[C@@H]1C[C@@H](C[C@H](NC(=O)c2cc(OC(F)F)ccc2NC(=O)c2cccc(C(F)(F)F)c2)C(=O)C(=O)NC2CC2)C(=O)N1 [Example 20] = 26.4
• C[C@@H]1C[C@@H](C[C@H](NC(=O)c2cc(Cl)ccc2NC(=O)C2(C(F)(F)F)CC2)C(=O)C(=O)NC2CC2)C(=O)N1 [Example 1] = 7.5
• CNC(=O)C(=O)[C@H](C[C@@H]1C[C@@H](C)NC1=O)NC(=O)c1cc(F)ccc1NC(=O)c1ccnc(C(F)(F)F)c1 [Example 207] = 11.4

----------
- target of assay: SARS2 coronavirus 3CL protease (Severe acute respiratory syndrome coronavirus 2, UniProt P0DTD1)
- experiment: biochemical
- measurement conditions: 5 nM enzyme, 30 min pre-incubation with compound, 15 μM peptide substrate, 4 h at room temperature; read-out: FRET Potency (nM); IC50 values in the SARS2 3CLPro FRET assay
measurement label: IC50 (nM)

• CNC(=O)C(=O)[C@H](C[C@@H]1C[C@@H](C)NC1=O)NC(=O)c1cc(Cl)ccc1NC(=O)OC1CCCC1 = 5.5
• C[C@@H]1C[C@@H](C[C@H](NC(=O)c2cc(Cl)ccc2NC(=O)CCC(F)(F)F)C(=O)C(=O)NC2CC2)C(=O)N1 = 6.9
• CNC(=O)C(=O)[C@H](C[C@@H]1C[C@@H](C)NC1=O)NC(=O)c1cc(Cl)ccc1NC(=O)OC1CCC(F)(F)C1 (stereo partly shown) [Example 201] = 7
• CC(C)OC(=O)Nc1ccc(Cl)cc1C(=O)N[C@@H](C[C@@H]1C[C@@H](C)NC1=O)C(=O)C(=O)NC1CC1 = 4.8
• CNC(=O)C(=O)[C@H](C[C@@H]1CCNC1=O)NC(=O)c1cc(Cl)ccc1NC(=O)OC = 4.3
• CNC(=O)C(=O)[C@H](C[C@@H]1C[C@@H](C)NC1=O)NC(=O)c1cc(Cl)ccc1NC(=O)C12CC(C(F)(F)F)(C1)C2 = 8.9
• O=C(CCC(F)(F)F)Nc1ccc(Cl)cc1C(=O)N[C@@H](C[C@@H]1CCCNC1=O)C(=O)C(=O)NC1CC1 = 15.1
• CNC(=O)C(=O)[C@H](C[C@@H]1CCNC1=O)NC(=O)c1cc(F)c(F)cc1NC(=O)OC = 6
• C[C@@H]1C[C@@H](C[C@H](NC(=O)c2cc(Cl)ccc2NC(=O)CCC(F)(F)F)C(=O)C(N)=O)C(=O)N1 = 8.3
• CNC(=O)C(=O)[C@H](C[C@@H]1C[C@@H](C)NC1=O)NC(=O)c1cc(Cl)ccc1NC(=O)c1cnc(C(F)(F)F)nc1 = 10.1
• O=C(NC1CC1)C(=O)[C@H](C[C@@H]1CCNC1=O)NC(=O)c1cc(Cl)ccc1NC(=O)C1(C(F)(F)F)CC1 = 12.9
• CNC(=O)C(=O)[C@H](C[C@@H]1CCNC1=O)NC(=O)c1cc(Cl)ccc1NC(=O)C(C)(C)C = 3.8
• CNC(=O)C(=O)[C@H](C[C@@H]1C[C@@H](C)NC1=O)NC(=O)c1cc(Cl)c(F)cc1NC(=O)OC = 13.8
• C[C@@H]1C[C@@H](C[C@H](NC(=O)c2cc(Cl)cc(F)c2NC(=O)C23CC(F)(C2)C3)C(=O)C(=O)NC2CC2)C(=O)N1 = 12.8
• CNC(=O)C(=O)[C@H](C[C@@H]1C[C@@H](C)NC1=O)NC(=O)c1cc(F)c(Cl)cc1NC(=O)OC1CC1 = 30.4
• O=C(NC1CC1)C(=O)[C@H](C[C@@H]1CCNC1=O)NC(=O)c1cc(Cl)ccc1NC(=O)C(F)(F)F = 8.6
• C[C@@H]1C[C@@H](C[C@H](NC(=O)c2cc(Cl)ccc2NC(=O)c2cccc(C(F)(F)F)n2)C(=O)C(=O)NC2CC2)C(=O)N1 = 10
• COC(=O)Nc1ccc(Cl)cc1C(=O)N[C@@H](C[C@@H]1CCNC1=O)C(=O)C(=O)NC1CC1 = 7.3
• O=C(Nc1ccc(Cl)cc1C(=O)N[C@@H](C[C@@H]1CCNC1=O)C(=O)C(=O)NC1CC1)OC1CC1 = 3.9
• [2H]C([2H])([2H])OC(=O)Nc1ccc(Cl)cc1C(=O)N[C@@H](C[C@@H]1C[C@@H](C)NC1=O)C(=O)C(=O)NC = 6
• C[C@@H]1C[C@@H](C[C@H](NC(=O)c2cc(Cl)ccc2NC(=O)CCC(F)(F)F)C(=O)C(=O)NCCO)C(=O)N1 = 9.3
• C[C@@H]1C[C@@H](C[C@H](NC(=O)c2cc(Cl)ccc2NC(=O)[C@H](C)CC(F)(F)F)C(=O)C(=O)NC2CC2)C(=O)N1 = 9.8
• CNC(=O)C(=O)[C@H](C[C@@H]1CCNC1=O)NC(=O)c1cc(Cl)ccc1NC(=O)[C@H]1CC1(F)F = 3
• C[C@@H]1C[C@@H](C[C@H](NC(=O)c2cc(Cl)ccc2NC(=O)[C@@H]2CN(C)C(=O)N2C)C(=O)C(=O)NC2CC2)C(=O)N1 = 5.6
• C[C@@H]1C[C@@H](C[C@H](NC(=O)c2cc(Cl)ccc2NC(=O)C2CC2C(F)(F)F)C(=O)C(=O)NC2CC2)C(=O)N1 (stereo partly shown) [Example 98] = 9.5
• CNC(=O)C(=O)[C@H](C[C@@H]1C[C@@H](C)NC1=O)NC(=O)c1cc(Cl)ccc1NC(=O)c1nccc(C(F)(F)F)n1 = 9.6
• CNC(=O)C(=O)[C@H](C[C@@H]1C[C@@H](C)NC1=O)NC(=O)c1cc(C#N)cnc1NC(=O)c1cc(C(F)(F)F)cc(C(F)(F)F)c1 = 11.5
• O=C(Nc1ccc(Cl)cc1C(=O)N[C@@H](C[C@@H]1CCNC1=O)C(=O)C(=O)NC1CC1)OC1CCC1 = 5.9

----------
IC50 by entry:
- target of assay: SARS2 coronavirus 3CL protease (Severe acute respiratory syndrome coronavirus 2)
- experiment: biochemical
- measurement conditions: 5 nM enzyme, 30 min pre-incubation with compound, 15 μM peptide substrate, 4 h at room temperature; read-out: FRET Potency (nM); IC50 values in the SARS2 3CLPro FRET assay
measurement label: IC50 (nM)

- CNC(=O)C(=O)[C@H](C[C@@H]1C[C@@H](C)NC1=O)NC(=O)c1cc(Cl)ccc1NC(=O)C1CN(C)C1 [Example 149]: 10.8
- CNC(=O)C(=O)[C@H](C[C@@H]1C[C@@H](C)NC1=O)NC(=O)c1cc(Cl)ccc1NC(=O)C1CCC(F)(F)C1 (single isomer, unassigned) [Example 65]: 7.2
- CNC(=O)C(=O)[C@H](C[C@@H]1C[C@@H](C)NC1=O)NC(=O)c1cc(Cl)ccc1NC(=O)C(C)c1ccnc(C(F)(F)F)c1 (stereo partly drawn) [Example 228]: 6.1
- CNC(=O)C(=O)[C@H](C[C@@H]1C[C@@H](C)NC1=O)NC(=O)c1cc(Cl)ccc1NC(=O)C1CC1C(F)(F)F (stereo partly drawn) [Example 190]: 3.1
- CC(C(=O)Nc1ccc(Cl)cc1C(=O)N[C@@H](C[C@@H]1C[C@@H](C)NC1=O)C(=O)C(=O)NC1CC1)c1cscn1 (stereo partly drawn) [Example 89]: 10.1
- CNC(=O)C(=O)[C@H](C[C@@H]1CCNC1=O)NC(=O)c1cc(Cl)ccc1NC(=O)CCC(F)(F)F [Example 159]: 7.9

----------
IC50 by entry:
- target of assay: SARS2 coronavirus 3CL protease (Severe acute respiratory syndrome coronavirus 2)
- experiment: biochemical
- measurement conditions: 5 nM enzyme, 30 min pre-incubation with compound, 15 μM peptide substrate, 4 h at room temperature; read-out: FRET Potency (nM); IC50 values in the SARS2 3CLPro FRET assay
measurement label: IC50 (nM)

* CNC(=O)C(=O)[C@H](C[C@@H]1CCNC1=O)NC(=O)c1cc(Cl)ccc1NC(=O)OC1CC1(F)F (stereo partly shown) [Example 157] | 8.9
* CNC(=O)C(=O)[C@H](C[C@@H]1C[C@@H](C)NC1=O)NC(=O)c1cc(Cl)ccc1NC(=O)C1CC1(F)F (single isomer, unassigned) [Example 14] | 46.4
* C[C@@H]1C[C@@H](C[C@H](NC(=O)c2cc(C(F)F)ccc2NC(=O)C2(C(F)(F)F)CC2)C(=O)C(=O)NC2CC2)C(=O)N1 | 60.3
* CNC(=O)C(=O)[C@H](C[C@@H]1C[C@@H](C)NC1=O)NC(=O)c1cc(Cl)ccc1NC(=O)C1CC1(F)F (single isomer, unassigned) [Example 60] | 7.9
* C[C@@H]1C[C@@H](C[C@H](NC(=O)c2cc(C#N)ccc2NC(=O)c2cccc(C(F)(F)F)c2)C(=O)C(=O)NC2CC2)C(=O)N1 | 7.7
* CNC(=O)C(=O)[C@H](C[C@@H]1C[C@@H](C)NC1=O)NC(=O)c1cc(Cl)cnc1NC(=O)OC1CC1 | 9.2
* CNC(=O)C(=O)[C@H](C[C@@H]1C[C@@H](C)NC1=O)NC(=O)c1cc(Cl)ccc1NC(=O)c1cccc(C(F)(F)F)n1 | 17.4
* C[C@@H]1C[C@@H](C[C@H](NC(=O)c2cc(Cl)ccc2NC(=O)c2cccc(F)c2)C(=O)C(=O)NC2CC2)C(=O)N1 | 6.2
* C[C@@H]1C[C@@H](C[C@H](NC(=O)c2cc(C#N)ccc2NC(=O)C23CC(F)(C2)C3)C(=O)C(=O)NC2CC2)C(=O)N1 | 46.7
* CNC(=O)C(=O)[C@H](C[C@@H]1C[C@@H](C(F)(F)F)NC1=O)NC(=O)c1cc(Cl)ccc1NC(=O)C1CC(F)(F)C1 | 9.9
* C[C@@H]1C[C@@H](C[C@H](NC(=O)c2cc(Cl)ccc2NC(=O)C2CCOCC2)C(=O)C(=O)NC2CC2)C(=O)N1 | 10.3
* C[C@@H]1C[C@@H](C[C@H](NC(=O)c2cc(Cl)ccc2NC(=O)c2cccc(C(F)(F)F)c2)C(=O)C(N)=O)C(=O)N1 | 8.8
* CNC(=O)C(=O)[C@H](C[C@@H]1C[C@@H](C)NC1=O)NC(=O)c1cc(Cl)ccc1NC(=O)CCC(F)(F)F | 7

Values compiled from patent US20240228535A1.
